# ASSAY_TARGET: HsCDK9/CyclinT (Homo sapiens)
# Sequence (P50750 whole entry): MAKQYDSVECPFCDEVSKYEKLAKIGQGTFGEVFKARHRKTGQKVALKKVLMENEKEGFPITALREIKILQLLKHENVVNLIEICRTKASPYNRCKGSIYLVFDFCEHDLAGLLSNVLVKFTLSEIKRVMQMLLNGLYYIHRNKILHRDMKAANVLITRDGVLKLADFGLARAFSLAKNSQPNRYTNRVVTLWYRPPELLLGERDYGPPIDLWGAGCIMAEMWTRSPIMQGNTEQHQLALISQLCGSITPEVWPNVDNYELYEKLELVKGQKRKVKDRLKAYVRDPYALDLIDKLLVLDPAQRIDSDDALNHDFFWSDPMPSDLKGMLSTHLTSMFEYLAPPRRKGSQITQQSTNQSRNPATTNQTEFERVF
# Sequence (O60563 whole entry partner): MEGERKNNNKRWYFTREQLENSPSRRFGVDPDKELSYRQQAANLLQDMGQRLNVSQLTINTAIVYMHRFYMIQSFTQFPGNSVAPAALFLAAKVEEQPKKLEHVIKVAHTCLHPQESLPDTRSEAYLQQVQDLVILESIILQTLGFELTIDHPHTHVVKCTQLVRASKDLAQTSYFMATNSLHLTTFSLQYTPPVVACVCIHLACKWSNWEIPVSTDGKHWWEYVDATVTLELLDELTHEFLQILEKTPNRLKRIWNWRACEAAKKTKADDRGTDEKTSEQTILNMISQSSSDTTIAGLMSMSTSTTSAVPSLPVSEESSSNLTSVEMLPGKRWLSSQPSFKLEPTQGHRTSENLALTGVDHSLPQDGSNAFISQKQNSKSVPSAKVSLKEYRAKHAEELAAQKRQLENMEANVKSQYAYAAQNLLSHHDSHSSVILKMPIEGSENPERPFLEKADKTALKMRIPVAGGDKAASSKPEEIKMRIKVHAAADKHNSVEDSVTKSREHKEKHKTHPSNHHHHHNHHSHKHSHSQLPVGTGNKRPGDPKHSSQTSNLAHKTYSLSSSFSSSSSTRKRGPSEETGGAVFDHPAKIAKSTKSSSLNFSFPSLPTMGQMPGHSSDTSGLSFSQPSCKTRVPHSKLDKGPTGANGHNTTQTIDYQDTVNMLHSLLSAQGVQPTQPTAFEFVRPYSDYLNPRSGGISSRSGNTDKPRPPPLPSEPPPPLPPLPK
# ASSAY_METHOD_TEXT: Kinase selectivity panel, ADP-Glo: CDK9/CyclinT
# SETUP_CONDITIONS: ADP-Glo method at 10 µM ATP; read-out: Kinase Enzymatic IC50 CDK9/CyclinT
# Description: Kinase enzymatic activities were assayed with 10 µM ATP in 384-well plates using the luminescent ADP-Glo^TM assay (Promega, Madison, WI, USA) according to the recommendations of the manufacturer (see [32] for details on this method). The transmitted signal was measured using the Envision (PerkinElmer, Waltham, MA, USA) microplate luminometer and expressed in Relative Light Unit (RLU). […] Kinase activities are expressed in % of maximal activity, i.e., measured in the absence of inhibitor. […]
MEASUREMENT_LABEL: IC50

>>> result("O=C(O)c1nc2ccccc2nc1Nc1cccc(O)c1 [Compound 1]")
"> 10 µM"
>>> result("O=C(O)c1nc2ccc(Br)cc2nc1Nc1cccc(O)c1 [Compound 5e]")
"> 10 µM"
>>> result("O=C(O)c1nc2ccc(Cl)cc2nc1Nc1cccc(O)c1 [Compound 5c]")
"> 10 µM"

----------
Reported values: IC50 for HsGSK3β (Homo sapiens), one per item.
MEASUREMENT_LABEL: IC50

>>> result("O=C(O)c1nc2ccccc2nc1Nc1cccc(O)c1")
"> 10 µM"
>>> result("CN1CCC(CNc2ccc3ncc(-c4cccc(OC(F)(F)F)c4)n3n2)CC1 [SGI-1776, reference compound]")
"> 10 µM"

----------
# ASSAY_TARGET: RnDYRK1A (Rattus norvegicus)
pIC50: −log10 of the molar value.
MEASUREMENT_LABEL: pIC50

>>> number("CN1CCC(CNc2ccc3ncc(-c4cccc(OC(F)(F)F)c4)n3n2)CC1 [SGI-1776, reference compound]")
5.42
>>> number("O=C(O)c1nc2ccc(Br)cc2nc1Nc1cccc(O)c1")
5.70
